# Emax per entry
Target: M2 muscarinic receptor (Homo sapiens)
Construct: expressed in transfected cells; host or cells: CHO (M2-CHO)
Sequence (P08172 1-466): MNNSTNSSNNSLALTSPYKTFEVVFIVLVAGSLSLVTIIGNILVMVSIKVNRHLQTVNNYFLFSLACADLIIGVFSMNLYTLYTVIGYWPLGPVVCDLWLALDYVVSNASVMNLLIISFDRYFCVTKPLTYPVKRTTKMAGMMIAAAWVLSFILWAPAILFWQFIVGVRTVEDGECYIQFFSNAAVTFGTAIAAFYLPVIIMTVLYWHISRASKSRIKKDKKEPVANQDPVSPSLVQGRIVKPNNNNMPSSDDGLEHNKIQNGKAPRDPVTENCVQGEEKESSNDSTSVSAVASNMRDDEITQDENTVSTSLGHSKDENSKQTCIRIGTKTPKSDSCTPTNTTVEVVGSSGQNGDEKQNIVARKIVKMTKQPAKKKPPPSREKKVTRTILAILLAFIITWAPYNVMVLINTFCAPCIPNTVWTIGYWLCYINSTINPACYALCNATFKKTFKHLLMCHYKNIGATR
Assay: Functional mobilization of intracellular calcium (FLIPR), M2-CHO cells
Type: cell-based
Settings: 100% efficacy = maximum response obtained with the Carbachol control

| molecule | experimental-value |
| --- | --- |
| COc1ccc(-c2ccc(C(C)(C)C#N)cc2)cc1C1CCN(C2CCOCC2)CC1 [Compound 192] | < 25% |
| Cc1ccc(F)cc1C1CCN([C@H]2CC[C@H]3CC[C@H]2C3)CC1 [Compound 81] | 25 to 100% |
| COc1ccc(Cl)cc1C1CCN(C2CCC(=O)CC2)CC1 [Compound 273] | 25 to 100% |
| Cc1cccc(-c2ccccc2C2CCN([C@H]3C[C@H]4CC[C@H]3C4)CC2)c1 [Compound 283] | < 25% |
| CCOC(=O)N1CCC(CN2CCC(c3ccccc3OC(F)(F)F)CC2)CC1 [Compound 271] | 25 to 100% |

The recorded Emax for entry COc1ccccc1C1CCN(C2CCCCC2)CC1 [Compound 113] equals < 25%

The recorded Emax for entry COc1ccccc1C1CCN(C2CC(c3ccccc3)C(c3ccccc3)C2)CC1 (stereo not drawn) [Compound 339] equals < 25%

----------
# Emax per entry
Biological target: M4 muscarinic receptor (Homo sapiens)
Construct: expressed in transfected cells; host or cells: CHO (M4-CHO)
Sequence (P08173 whole entry): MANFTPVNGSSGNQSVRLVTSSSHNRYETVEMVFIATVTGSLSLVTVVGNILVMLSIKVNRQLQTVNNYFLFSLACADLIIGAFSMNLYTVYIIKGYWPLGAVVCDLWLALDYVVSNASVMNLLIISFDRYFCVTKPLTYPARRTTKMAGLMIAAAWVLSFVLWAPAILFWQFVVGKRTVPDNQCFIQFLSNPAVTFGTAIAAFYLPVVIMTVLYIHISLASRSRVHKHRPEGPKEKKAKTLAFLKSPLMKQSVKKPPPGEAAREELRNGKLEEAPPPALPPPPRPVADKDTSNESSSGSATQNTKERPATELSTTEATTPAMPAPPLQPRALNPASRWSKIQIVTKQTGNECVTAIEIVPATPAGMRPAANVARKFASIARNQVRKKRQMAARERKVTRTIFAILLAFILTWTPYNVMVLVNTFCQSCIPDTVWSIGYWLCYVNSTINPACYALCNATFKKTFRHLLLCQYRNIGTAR
Assay: Functional mobilization of intracellular calcium (FLIPR), M4-CHO cells
Format: cell-based
Details: 100% efficacy = maximum response obtained with the Carbachol control

Below are worked cases with known answers.
| compound | endpoint | experimental-value |
| --- | --- | --- |
| COc1ccc(NC(C)=O)cc1C1CCN(CC2C[C@H]3CC[C@H]2C3)CC1 (some centres unmarked) [Compound 166] | Emax | < 25% |
| COc1cc(F)c(F)c(C2CCN(C3CC4CCC(C4)C3)CC2)c1 (centres unmarked) [Compound 310] | Emax | 25 to 100% |
| COc1c(F)cc(F)cc1C1CCN([C@H]2C[C@H]3CC[C@H]2C3)CC1 [Compound 165] | Emax | 25 to 100% |
| COc1ccc(C(=O)C2CC2)cc1C1CCN([C@H]2C[C@H]3CC[C@H]2C3)CC1 [Compound 3] | Emax | < 25% |
| COc1ccc(F)cc1C1(F)CCN(C2CCCCC2)CC1 [Compound 59] | Emax | 25 to 100% |

The recorded Emax for entry COc1cc(F)c(F)c(C2CCN(C3CCOCC3)CC2)c1 [Compound 49] equals 25 to 100%

The recorded Emax for entry CCOC(=O)N1CCC(CN2CCC(c3cccc4c3OCO4)CC2)CC1 [Compound 217] equals 25 to 100%

The recorded Emax for entry Fc1ccccc1C1CCN(C2C[C@H]3CC[C@H]2C3)CC1 (some centres unmarked) [Compound 259] equals 25 to 100%
